Test system: HCT15 CRC cell line
Assay Notes: SRB proliferation assay, 72 h
Assay type: cell-based
Test Context: Homo sapiens, HCT-15, 72 hours, 0.05-5 μM, read-out: IC50, growth inhibition by PQIP (SRB)
pIC50: −log10 of the molar value.
Property: pIC50

Asked: Look up pIC50 for this compound: CN1CCN([C@H]2C[C@@H](c3nc(-c4ccc5ccc(-c6ccccc6)nc5c4)c4c(N)nccn43)C2)CC1 [PQIP]
Given back: < 5.30

---

Tested on: SW1417 CRC cell line
Assay Notes: SRB proliferation assay, 72 h
Format: cell-based
Test Context: Homo sapiens, read-out: S/I/R to OSI-906
Description: FIG. 17: Results of cell proliferation assay on the panel of 27 CRC cell lines. Cell proliferation was evaluated by SRB following exposure to OSI-906 for 72 hours. Cells were plated at an optimized density in 96-well plates, incubated overnight at 37° C., and then exposed to a serial dilution of OSI-906. After 72 hours incubation, cells were fixed with trichloroacetic acid and an SRB was performed as described in materials and methods. Cell Lines and Culture. […]
pIC50: −log10 of the molar value.
Property: pIC50

Asked: Quick one: pIC50 for C[C@]1(O)C[C@@H](c2nc(-c3ccc4ccc(-c5ccccc5)nc4c3)c3c(N)nccn32)C1 [OSI-906] ?
Given back: < 5.30

---

Test system: CaCo2 CRC cell line
Assay Notes: SRB proliferation assay, 72 h
Assay type: cell-based
Test Context: Homo sapiens, Caco-2, 72 hours, read-out: IC50, proliferation, OSI-906 (SRB)
Property: IC50

Asked: IC50 lookup needed for C[C@]1(O)C[C@@H](c2nc(-c3ccc4ccc(-c5ccccc5)nc4c3)c3c(N)nccn32)C1 , thanks.
Given back: ≤ 1500 nM

---

Test system: SW48 CRC cell line
Assay Notes: SRB proliferation assay, 72 h
Format: cell-based
Test Context: Homo sapiens, 72 hours, 0.05-5 μM, read-out: IC50, growth inhibition by PQIP (SRB)
Property: IC50

Asked: What measured IC50 is associated with CN1CCN([C@H]2C[C@@H](c3nc(-c4ccc5ccc(-c6ccccc6)nc5c4)c4c(N)nccn43)C2)CC1 on SW48 CRC cell line?
Given back: > 5 µM

---

System: RKO CRC cell line
Assay Notes: SRB proliferation assay, 72 h
Assay type: cell-based, human
Test Context: Homo sapiens, 72 hours, 0.05-5 μM, read-out: IC50, growth inhibition by PQIP (SRB)
pIC50: −log10 of the molar value.
Property: pIC50

Asked: Return reported pIC50; argument: CN1CCN([C@H]2C[C@@H](c3nc(-c4ccc5ccc(-c6ccccc6)nc5c4)c4c(N)nccn43)C2)CC1 [PQIP]
Given back: < 5.30

---

System: LS513 CRC cell line
Assay Notes: SRB proliferation assay, 72 h
Type: cell-based, human
Test Context: Homo sapiens, LS-513, 72 h, LS513; 72 hours; 0.05-5 μM; read-out: IC50, growth inhibition by PQIP (SRB)
Property: IC50

Asked: Give recorded IC50 with LS513 CRC cell line for the following molecule: CN1CCN([C@H]2C[C@@H](c3nc(-c4ccc5ccc(-c6ccccc6)nc5c4)c4c(N)nccn43)C2)CC1
Given back: < 500 nM

---

System: SW480 CRC cell line
Assay Notes: SRB proliferation assay, 72 h
Type: cell-based, human
Test Context: Homo sapiens; SW480; 72 hours; read-out: IC50, proliferation, OSI-906 (SRB)
pIC50: −log10 of the molar value.
Property: pIC50

Asked: Given the entry C[C@]1(O)C[C@@H](c2nc(-c3ccc4ccc(-c5ccccc5)nc4c3)c3c(N)nccn32)C1 , report its measured pIC50.
Given back: < 5.30

---

System: SW837 CRC cell line
Assay Notes: SRB proliferation assay, 72 h
Assay type: cell-based
Test Context: Homo sapiens, 72 hours, 0.05-5 μM, read-out: IC50, growth inhibition by PQIP (SRB)
pIC50: −log10 of the molar value.
Property: pIC50

Asked: Query the reported pIC50 for SW837 CRC cell line; item: CN1CCN([C@H]2C[C@@H](c3nc(-c4ccc5ccc(-c6ccccc6)nc5c4)c4c(N)nccn43)C2)CC1 [PQIP]
Given back: < 5.30

---

System: SW837 CRC cell line
Assay Notes: SRB proliferation assay, 72 h
Type: cell-based
Test Context: Homo sapiens, 72 hours, read-out: IC50, proliferation, OSI-906 (SRB)
Property: IC50

Asked: // returns reported IC50 for input C[C@]1(O)C[C@@H](c2nc(-c3ccc4ccc(-c5ccccc5)nc4c3)c3c(N)nccn32)C1
Given back: > 5 µM

---

Tested on: SW403 CRC cell line
Assay Notes: SRB proliferation assay, 72 h
Format: cell-based
Test Context: Homo sapiens, SW-403, 72 hours, 0.05-5 μM, read-out: IC50, growth inhibition by PQIP (SRB)
Property: IC50

Asked: Quick one: IC50 for CN1CCN([C@H]2C[C@@H](c3nc(-c4ccc5ccc(-c6ccccc6)nc5c4)c4c(N)nccn43)C2)CC1 [PQIP] ?
Given back: > 5 µM

---

Tested on: RKO CRC cell line
Assay Notes: SRB proliferation assay, 72 h
Format: cell-based, human
Test Context: Homo sapiens, 72 hours, read-out: IC50, proliferation, OSI-906 (SRB)
Property: IC50

Asked: Hi! What's the reported IC50 for C[C@]1(O)C[C@@H](c2nc(-c3ccc4ccc(-c5ccccc5)nc4c3)c3c(N)nccn32)C1 [OSI-906] on RKO CRC cell line?
Given back: > 5 µM

---

Tested on: SK-CO-1 CRC cell line
Assay Notes: SRB proliferation assay, 72 h
Type: cell-based, human
Test Context: Homo sapiens, 72 hours, read-out: IC50, proliferation, OSI-906 (SRB)
Property: IC50

Asked: # lookup: IC50 of C[C@]1(O)C[C@@H](c2nc(-c3ccc4ccc(-c5ccccc5)nc4c3)c3c(N)nccn32)C1
Given back: > 5 µM

---

System: HCT8 CRC cell line
Assay Notes: SRB proliferation assay, 72 h
Type: cell-based
Test Context: Homo sapiens, HCT-8, 72 hours, read-out: IC50, proliferation, OSI-906 (SRB)
Property: IC50

Asked: Look up IC50: C[C@]1(O)C[C@@H](c2nc(-c3ccc4ccc(-c5ccccc5)nc4c3)c3c(N)nccn32)C1
Given back: > 5 µM

---

System: T84 CRC cell line
Assay Notes: SRB proliferation assay, 72 h
Format: cell-based
Test Context: Homo sapiens, 72 hours, 0.05-5 μM, read-out: IC50, growth inhibition by PQIP (SRB)
Property: IC50

Asked: Quick one: IC50 of CN1CCN([C@H]2C[C@@H](c3nc(-c4ccc5ccc(-c6ccccc6)nc5c4)c4c(N)nccn43)C2)CC1 ?
Given back: > 5 µM

---

System: HT29 CRC cell line
Assay Notes: SRB proliferation assay, 72 h
Assay type: cell-based, human
Test Context: Homo sapiens, HT-29, 72 h, HT29; 72 hours; read-out: IC50, proliferation, OSI-906 (SRB)
Property: IC50

Asked: Consider the compound C[C@]1(O)C[C@@H](c2nc(-c3ccc4ccc(-c5ccccc5)nc4c3)c3c(N)nccn32)C1 and give its measured IC50.
Given back: ≤ 1500 nM

---

Test system: LS513 CRC cell line
Assay Notes: SRB proliferation assay, 72 h
Format: cell-based, human
Test Context: Homo sapiens, LS-513, 72 h, LS513; 72 hours; read-out: IC50, proliferation, OSI-906 (SRB)
Property: IC50

Asked: I have this molecule here, C[C@]1(O)C[C@@H](c2nc(-c3ccc4ccc(-c5ccccc5)nc4c3)c3c(N)nccn32)C1 , and I need its recorded IC50.
Given back: ≤ 1500 nM

---

Tested on: LS513 CRC cell line
Assay Notes: SRB proliferation assay, 72 h
Assay type: cell-based, human
Test Context: LS513; 72 hours; 0.05-5 μM; read-out: IC50, growth inhibition by PQIP (SRB)
pIC50: −log10 of the molar value.
Property: pIC50

Asked: Looking for the measured pIC50 of CN1CCN([C@H]2C[C@@H](c3nc(-c4ccc5ccc(-c6ccccc6)nc5c4)c4c(N)nccn43)C2)CC1 , can you help?
Given back: ~6.52

---

System: GEO CRC cell line
Assay Notes: SRB proliferation assay, 72 h
Format: cell-based
Test Context: Homo sapiens, 72 hours, read-out: IC50, proliferation, OSI-906 (SRB)
Property: IC50

Asked: Record request: IC50 value, item C[C@]1(O)C[C@@H](c2nc(-c3ccc4ccc(-c5ccccc5)nc4c3)c3c(N)nccn32)C1
Given back: ≤ 1500 nM

---

System: SW403 CRC cell line
Assay Notes: SRB proliferation assay, 72 h
Assay type: cell-based
Test Context: Homo sapiens, SW-403, 72 hours, read-out: IC50, proliferation, OSI-906 (SRB)
Experimental: FIG. 17: Results of cell proliferation assay on the panel of 27 CRC cell lines. Cell proliferation was evaluated by SRB following exposure to OSI-906 for 72 hours. Cells were plated at an optimized density in 96-well plates, incubated overnight at 37° C., and then exposed to a serial dilution of OSI-906. After 72 hours incubation, cells were fixed with trichloroacetic acid and an SRB was performed as described in materials and methods. Cell Lines and Culture. […]
Property: IC50

Asked: Requested field: IC50. Item: C[C@]1(O)C[C@@H](c2nc(-c3ccc4ccc(-c5ccccc5)nc4c3)c3c(N)nccn32)C1
Given back: > 5 µM
